- assay info: Oral bioavailability
- assay context: in vivo, rodents
Square brackets hold non-standard residues; d marks the D form. Peptide text beside a SMILES is read from it. Aib = CC(C)(N)C(=O)O

compound	bioavailability
CC(C)(NC(=O)[C@H](N)Cc1c[nH]c2ccccc12)C(=O)O [compound (1)] (H-[dW]-[Aib]-OH)	~5%
